Here, each record is paired with measured growth data.
# Tested on: BT-549 breast
# protocol notes: NCI-60 one-dose screen, 48 h (100 = growth as untreated, 0 = no growth, -100 = all killed)
# conditions used: 10 µM unless noted
About 83,000 compounds went through this panel and 20% of them were active in at least one assay; those are over-represented in the sample as a whole.
Report the figure in % without appending any unit label.

**Q:** Recall the reported growth of Cc1nc2sc(C(=O)Nc3cccc(Br)c3)c(N)c2cc1C(=O)c1ccc(C(F)(F)F)cc1 when tested on BT-549 breast.
**A:** 95.7

**Q:** // fetch growth for CN1CCN(CCCNc2nccc(-c3c(-c4ccc(F)c(O)c4)nc4sccn34)n2)S1(=O)=O ; system: BT-549 breast
**A:** 128

**Q:** State measured growth of the molecule CC(=O)O[C@H]1CC[C@@]2(C)[C@@H](CC[C@@H]3[C@@H]2CC[C@@]2(C)[C@H]3CC[C@]2(O)C(C)=O)C1 with BT-549 breast.
**A:** 92.5

**Q:** Look up BT-549 breast data: growth of COc1ccc(OC)c(/C=C/[C@H]2O[C@@H](C)[C@H](O)[C@@H]2O)c1 , then report it.
**A:** 104

**Q:** Param request: growth | system BT-549 breast | item Fc1ccc(C2CC(c3cccc(Nc4ccncc4)c3)=NN2c2cc(Cl)cc(Cl)c2)cc1 (stereo unspecified)
**A:** 104

**Q:** With BT-549 breast as the test system, provide measured growth for this molecule: Cc1ccc(-c2c(Br)c(OC(=O)CO[C@@H]3C[C@H](C)CC[C@H]3C(C)C)c(-c3ccc(C)cc3C)c(Br)c2OC(=O)CO[C@H]2C[C@@H](C)CC[C@@H]2C(C)C)c(C)c1
**A:** 85.5

###

# System: IGROV1 ovarian
# protocol notes: NCI-60 one-dose screen, 48 h (100 = growth as untreated, 0 = no growth, -100 = all killed)
# conditions used: 10 µM unless noted
The panel holds about 83,000 compounds, 20% with a hit somewhere; the sample as a whole holds those more often.
Lab note: cut-off is 60%. Strictly less in growth is met. Exactly 60% or more is not met.

# molecule, system, cat
measured = [
    ("O=S(=O)(c1cccc(NC2=Nc3cccc4cccc2c34)c1)N1CCCC1", "IGROV1 ovarian", "not met"),
]

**Q:** Please determine if COc1ccc(C2CC(n3nnnc3-c3ccccc3)=NN2)cc1 (centres undefined) is below 60% in terms of growth.
**A:** not met

**Q:** Item CN(Cc1ccccc1)c1nc(Cl)c(C2CC(c3ccc(Cl)cc3)=Cc3[nH][nH]c(=O)c32)s1 (centres undefined) : growth beneath 60%, strictly?
**A:** not met

**Q:** growth strictly < 60% for this molecule? CCCNC(=O)Oc1ccc(/C(=C(\C)c2ccccc2)c2ccc(OCCN3CCCCC3)cc2)cc1
**A:** not met

**Q:** Please check: growth for Nc1ncc(C#Cc2cncc(NC(=O)c3cccc(C(F)(F)F)c3)c2)c2cccnc12 , strictly under 60% or not?
**A:** met

###

# System: A498 renal
# protocol notes: NCI-60 one-dose screen, 48 h (100 = growth as untreated, 0 = no growth, -100 = all killed)
# conditions used: 10 µM unless noted
This is part of a sample that, as a whole, favours compounds with a hit. Of some 83,000 tested, about 20% had one in any assay.
Lab note - cut at 90% for growth: YES if strictly below, NO if not.

# compound, system, cat
records = [
    ("O=S(=O)(NCCNc1nccc(-c2c(-c3cccc(F)c3)nc3occn23)n1)c1cccc2ccccc12", "A498 renal", "YES"),
]

Here is the next item to consider.
**Q:** Here's an entry: COc1cc(C2CC(c3cccc(Nc4ccncc4)c3)=NN2C(C)=O)cc(OC)c1OC (stereo unspecified) . Is its growth below 90%?
**A:** NO

Reference source for all entries: PubChem BioAssay (NCI)
